tested-target: T1, human PD-L1 4NQ (N35Q/N192Q/N200Q/N219Q), fully unglycosylated variant, expressed on BT549 cells (human, UniProt Q9NZQ7 19-290)
T1 construct: In the Western blots the protein was in cell lysate; also called 4NQ PD-L1; unglycosylated PD-L1 4NQ mutant
T1 chain: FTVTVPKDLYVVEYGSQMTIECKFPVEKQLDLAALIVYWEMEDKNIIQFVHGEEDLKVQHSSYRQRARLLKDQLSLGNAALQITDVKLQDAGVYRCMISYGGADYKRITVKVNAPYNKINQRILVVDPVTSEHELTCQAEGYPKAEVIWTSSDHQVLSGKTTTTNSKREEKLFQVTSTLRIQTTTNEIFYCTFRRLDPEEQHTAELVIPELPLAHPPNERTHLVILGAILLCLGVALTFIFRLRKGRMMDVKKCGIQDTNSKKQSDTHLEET
protocol-notes: flow cytometry on BT549 cells overexpressing PD-L1 4NQ (mixed with WT cells), FITC secondary antibody
quantity: MFI
Answer field: number only, no words.

Worked examples, 3 binders total:
Incoming: Input STM108 MAb (antibody, V domains shown) VH: EVMLVESGGALVKPGGSLKLSCAASGFSLSNYVMSWVRQTPEKRLEWVATISSGGRYIYYTDSVKGRFTISRDNARNTLYLQMSSLRSEDTAMYYCARDGSTLYYFDYWGQGTTLTVSS VL: QTVLTQSPAIMSASPGEKVTMTCSASSSVDYMYWYQQKPGSSPRLLIYDTSNLASGVPVRFSGSGSGTSYSLTISRMEAEDAATYYCQQWSSSPPITFGTGTKVELK , output reported MFI.
Outgoing: 27.6

Incoming: Input STM115 MAb (antibody, V domains shown) VH: EVMLVESGGALVEPGGSLKLSCVASGFTFSNYAMSWVRQTPERRLEWVASITNGGTYTYYPDSVKGRFTISRDNARNTLYLQMSSLRSEDTAMYFCARPLHYYGGSHFDYWGQGTTLTVSS VL: EIVLTQSPALMAASPGEKVTITCSVSSSISSNTLHWYQQKSEISPKPWIYGTSNLASGVPVRFSGSGSGTSYSLTISSMEAEDAATYYCQQWSSYPLTFGGGTKLEIK , output reported MFI.
Outgoing: 21.3

Incoming: Input STM004 MAb (antibody, V domains shown) VH: QVQLQQSDAELVKPGASVKISCKASGYTFSDHAIHWVKQRPEQGLEWIGCISPGSGDITYNEKFKGKATLTADKSSSTAYMQLNSLTSEDSAVYFCKRWGLDYWGQGTTLTVSS VL: DIVLTQSPASLAVSLGQRATISCRASESVEFYGTTLMQWYQQKPGQPPRLLIYAASNVESGVPARFSGSGSGTDFSLNIHPVEDDDIAMYFCQQSRKVPYTFGGGTKLEIK , output reported MFI.
Outgoing: 8.7

Continuing:
Incoming: Input STM073 MAb (antibody, V domains shown) VH: EVQLVESGGALVKPGGSLKLSCAASGFTFSNSAMSWVRQTPEKRLEWVATISSAGSYTYYPDSVKGRFTISRDNAKNTLYLQMSSLRSEDTALYYCTRHYDYYFDYWGQGATLTVSS VL: QIVLTQSPAIMSASPGEKVTLTCSASSSVSYMHWYQQKPGSSPRLVIYDTSNLASGVPVRFSGSGSGTSYSLTVSRMEAEDAATYYCQQWSDHPLTFGAGTKLELK , output reported MFI.
Outgoing: 12.2
